Quick note: these are IC50 numbers for system: HDAC2 (Homo sapiens, UniProt Q92769)
Sequence (Q92769 whole entry): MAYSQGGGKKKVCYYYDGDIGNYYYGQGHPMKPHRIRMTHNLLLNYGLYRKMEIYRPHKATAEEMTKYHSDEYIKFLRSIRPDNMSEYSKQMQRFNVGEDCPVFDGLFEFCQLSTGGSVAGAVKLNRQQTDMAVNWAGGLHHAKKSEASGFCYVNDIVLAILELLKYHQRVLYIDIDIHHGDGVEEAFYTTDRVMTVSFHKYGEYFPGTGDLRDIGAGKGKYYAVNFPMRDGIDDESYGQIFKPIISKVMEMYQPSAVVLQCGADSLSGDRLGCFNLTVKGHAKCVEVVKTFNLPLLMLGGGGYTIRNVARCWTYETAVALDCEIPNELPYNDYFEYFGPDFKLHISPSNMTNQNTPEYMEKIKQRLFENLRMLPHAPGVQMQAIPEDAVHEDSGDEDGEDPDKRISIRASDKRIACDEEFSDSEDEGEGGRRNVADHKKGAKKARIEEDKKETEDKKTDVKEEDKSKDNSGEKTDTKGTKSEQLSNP
Recorded Endpoint: IC50

- Molecule: "Nc1ccccc1NC(=O)c1ccc(COc2nc3ccncc3[nH]2)cc1"
  Reported Measurement: "100 to 1000 nM"
- Molecule: "Nc1ccccc1NC(=O)c1ccc(C[S+]([O-])c2nc3ccccc3[nH]2)cc1 (stereo not drawn)"
  Reported Measurement: "100 to 1000 nM"
- Molecule: "Nc1ccccc1NC(=O)c1ccc(CS(=O)(=O)c2nc3ccccc3[nH]2)cc1"
  Reported Measurement: "100 to 1000 nM"
